Reference for the values: paper PMC3855573

system-name: acto-MV FlAsH (Gallus gallus, UniProt Q02440, D297C/G292C/I296C/S293C/V295G)
experiment-summary: Mg dependence of ADP release rate constants
Assay type: binding, chicken
assay-conditions: read-out: KD.Mg; actomyosin V weak ADP binding conformation, Eq. 14

| compound | Kd (µM) |
| --- | --- |
| [Mg+2] [Mg, magnesium] | 600 |
